- tested-target: Acyl-protein thioesterase 1 [I75L] (Homo sapiens, UniProt O75608, I75L)
- Sequence (O75608 whole entry I75L): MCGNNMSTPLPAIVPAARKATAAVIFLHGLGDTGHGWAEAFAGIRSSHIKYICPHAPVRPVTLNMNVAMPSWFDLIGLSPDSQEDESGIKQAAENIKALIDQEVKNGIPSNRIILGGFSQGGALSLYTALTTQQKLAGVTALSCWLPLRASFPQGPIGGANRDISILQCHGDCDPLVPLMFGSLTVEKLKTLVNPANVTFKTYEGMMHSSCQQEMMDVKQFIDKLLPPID
- test-description: Steady-State Kinetic Assays
- run-conditions: pH 6.5
experimental-endpoint: pKi
Lab note — pKi values are minus log10 of concentrations in M.

Exercise: If you can, please state the reported pKi value of COc1ccc(N2CCN(C(=O)c3cc4c(s3)-c3ccccc3S(=O)(=O)C4)CC2)cc1 .
Key: 6.43

----------
Items are presented alongside their recorded pKd.
- tested-target: Acyl-protein thioesterase 2 [S122A] (Homo sapiens, UniProt O95372, S122A)
- Sequence (O95372 whole entry S122A): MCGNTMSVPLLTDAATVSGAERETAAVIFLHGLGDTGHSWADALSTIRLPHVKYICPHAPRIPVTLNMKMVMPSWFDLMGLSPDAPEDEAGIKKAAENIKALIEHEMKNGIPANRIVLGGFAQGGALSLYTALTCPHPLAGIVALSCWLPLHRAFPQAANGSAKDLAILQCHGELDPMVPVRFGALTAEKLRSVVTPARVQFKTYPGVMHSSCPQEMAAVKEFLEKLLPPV
- test-description: Fluorescence Binding Assays
- run-conditions: 25 °C
Convention used: pKd is expressed as -log10 of the molar concentration.

O=C1C=CC2C(=C1)Oc1cc(O)ccc1C2c1cc(C(=O)NCCOCCOCCOCCn2cc(COc3ccc(N4CCN(C(=O)c5cc6c(s5)-c5ccccc5S(=O)(=O)C6)CC4)cc3)nn2)ccc1C(=O)O (stereo not drawn) ... 6.11

Exercise: May I ask what pKd has been recorded for COc1ccc(N2CCN(C(=O)c3cc4c(s3)-c3ccccc3S(=O)(=O)C4)CC2)cc1 ?
Key: 6.80

----------
- tested-target: Acyl-protein thioesterase 1 [L176M] (Homo sapiens, UniProt O75608, L176M)
- Sequence (O75608 whole entry L176M): as the sequence (O75608 whole entry I75L) above, with L75I, L176M counted along it
- test-description: Steady-State Kinetic Assays
- run-conditions: pH 6.5
experimental-endpoint: Ki

Exercise: Form entry - test system: Acyl-protein thioesterase 1 [L176M] (Homo sapiens, UniProt O75608, L176M); read-out: Ki; compound: COc1ccc(N2CCN(C(=O)c3cc4c(s3)-c3ccccc3S(=O)(=O)C4)CC2)cc1 [ML349]
Key: > 10 µM

----------
- tested-target: Acyl-protein thioesterase 1 [Q83P] (Homo sapiens, UniProt O75608, Q83P)
- Sequence (O75608 whole entry Q83P): as the sequence (O75608 whole entry I75L) above, with L75I, Q83P counted along it
- test-description: Steady-State Kinetic Assays
- run-conditions: pH 6.5
pKi: −log10 of the molar value.
experimental-endpoint: pKi

Exercise: Entry COc1ccc(N2CCN(C(=O)c3cc4c(s3)-c3ccccc3S(=O)(=O)C4)CC2)cc1 has what pKi?
Key: < 5.00

----------
- tested-target: Acyl-protein thioesterase 2 [H152R] (Homo sapiens, UniProt O95372, H152R)
- Sequence (O95372 whole entry H152R): as the sequence (O95372 whole entry S122A) above, with A122S, H152R counted along it
- test-description: Steady-State Kinetic Assays
- run-conditions: pH 6.5
experimental-endpoint: pKi
Worth noting: pKi values are minus log10 of concentrations stated in mol/L.

Exercise: Entry COc1ccc(N2CCN(C(=O)c3cc4c(s3)-c3ccccc3S(=O)(=O)C4)CC2)cc1 : reported pKi = ?
Key: 6.18

----------
- tested-target: Acyl-protein thioesterase 2 [L78I] (Homo sapiens, UniProt O95372, L78I)
- test-description: Steady-State Kinetic Assays
- run-conditions: pH 6.5
- Description: Enzymes were diluted to 10 nM in PBS pH 6.5 (adjusted with sodium acetate) supplemented with 0.1 g/L pluronic F127 (Sigma). Varying concentrations of resorufin acetate (Sigma) in DMSO were added as 5 μL aliquots to clear-bottom 96-well plates (Greiner bio-one). Using a multi-channel pipette, 95 μL of enzyme was added to each well and quickly mixed by pipetting up and down several times. […]
experimental-endpoint: Ki (µM)
Expressed in µM, but write only the number.

Exercise: Would you kindly share the measured Ki for O=C(CN1CCN(C(=O)c2ccco2)CC1)Nc1cc(C(F)(F)F)ccc1Cl ?
Key: 5.8

----------
- tested-target: Acyl-protein thioesterase 1 [I75L,S82A] (Homo sapiens, UniProt O75608, I75L/S82A)
- Sequence (O75608 whole entry I75L/S82A): as the sequence (O75608 whole entry I75L) above, with S82A counted along it
- test-description: Steady-State Kinetic Assays
- run-conditions: pH 6.5
- Description: Enzymes were diluted to 10 nM in PBS pH 6.5 (adjusted with sodium acetate) supplemented with 0.1 g/L pluronic F127 (Sigma). Varying concentrations of resorufin acetate (Sigma) in DMSO were added as 5 μL aliquots to clear-bottom 96-well plates (Greiner bio-one). Using a multi-channel pipette, 95 μL of enzyme was added to each well and quickly mixed by pipetting up and down several times. […]
experimental-endpoint: Ki (nM)
Record the value in nM, omitting the unit from your answer.

Exercise: Look at this molecule and give its reported Ki. COc1ccc(N2CCN(C(=O)c3cc4c(s3)-c3ccccc3S(=O)(=O)C4)CC2)cc1
Key: 280
